target: TG2 (Homo sapiens (Human), UniProt P21980)
Sequence (P21980 whole entry): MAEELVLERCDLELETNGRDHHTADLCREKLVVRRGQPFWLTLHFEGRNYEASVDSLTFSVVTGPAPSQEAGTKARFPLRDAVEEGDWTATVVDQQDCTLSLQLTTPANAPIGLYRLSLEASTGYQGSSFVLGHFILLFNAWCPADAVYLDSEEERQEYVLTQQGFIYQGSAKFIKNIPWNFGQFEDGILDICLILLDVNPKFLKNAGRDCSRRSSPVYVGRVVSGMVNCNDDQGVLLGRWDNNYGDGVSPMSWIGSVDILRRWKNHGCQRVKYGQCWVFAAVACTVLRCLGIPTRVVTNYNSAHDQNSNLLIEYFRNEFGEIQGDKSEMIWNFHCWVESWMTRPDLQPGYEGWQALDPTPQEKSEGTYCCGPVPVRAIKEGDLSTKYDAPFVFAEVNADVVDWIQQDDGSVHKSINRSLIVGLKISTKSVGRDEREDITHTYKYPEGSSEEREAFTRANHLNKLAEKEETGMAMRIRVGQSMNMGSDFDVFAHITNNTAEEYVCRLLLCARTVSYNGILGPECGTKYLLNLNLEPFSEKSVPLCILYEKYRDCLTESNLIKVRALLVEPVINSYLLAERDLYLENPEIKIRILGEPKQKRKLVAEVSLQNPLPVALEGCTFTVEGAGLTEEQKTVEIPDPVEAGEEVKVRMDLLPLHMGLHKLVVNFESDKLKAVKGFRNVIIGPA
test-name: Inhibitory activity against TG2 (isopeptidase assay), Tables 3 and 4
Type: biochemical
measurement-setup: TG2 versus FXIII, Table 4
*1 amine or outer side, *2 acyl side, *3 side chain or, on linkers, in order; H or OH if unused. Where a SMILES comes first, the peptide text is derived from it. [ ]: non-standard residue; d: D form. The star is where a group is joined. ξ: configuration not given here. Benzoyl(3-COOH,5-NO2) = O=C(O)c1cc(C(=O)*)cc([N+](=O)[O-])c1; Nle(5E-ene,6-CO2Et) = CCOC(=O)/C=C/CC[C@H](N)C(=O)O; X1 = COC(=O)/C=C/CC[C@H](N[*:1])C(=O)[*:2]; Pro(4-oxo) = O=C1CN[C@H](C(=O)O)C1; Ile(3ξ) = CCC(C)[C@H](N)C(=O)O; Thr(3ξ) = CC(O)[C@H](N)C(=O)O; Chg = N[C@H](C(=O)O)C1CCCCC1; Tle = CC(C)(C)[C@H](N)C(=O)O; Nle = CCCC[C@H](N)C(=O)O; NHIsopentyl = CC(C)CCN*; Cbz = O=C(OCc1ccccc1)*; ξV = CC(C)C(N)C(=O)O; Alloc = C=CCOC(=O)*
measured-attribute: Selectivity

Completed entries (count: 4):
CCOC(=O)/C=C/CC[C@H](NC(=O)OCc1ccccc1)C(=O)N[C@H](C(=O)N1CCC[C@H]1C(=O)N[C@H](C(=O)NCCC(C)C)C1CCCCC1)C(C)C [Ref. 10, reference compound] (Cbz-[Nle(5E-ene,6-CO2Et)]VP[Chg]-NHIsopentyl) ... 0.02
CCOC(=O)/C=C/CC[C@H](NC(=O)c1cc(C(=O)O)cc([N+](=O)[O-])c1)C(=O)N[C@H](C(=O)N1CC(=O)C[C@H]1C(=O)N[C@H](C(=O)NCCC(C)C)C1CCCCC1)C(C)(C)C [Compound 40] ({Benzoyl(3-COOH,5-NO2)}-[Nle(5E-ene,6-CO2Et)][Tle][Pro(4-oxo)][Chg]-NHIsopentyl) ... 10.47
C=CCOC(=O)NCCCC[C@H](NC(=O)[C@H](CC(C)C)NC(=O)[C@H](CC(C)C)NC(=O)[C@@H](NC(=O)[C@H](CC(C)C)NC(=O)[C@@H]1CCCN1C(=O)[C@H](CO)NC(=O)C(NC(=O)[C@H](CCC(N)=O)NC(=O)[C@H](CCC(=O)O)NC(=O)[C@H](CC/C=C/C(=O)OC)NC(=O)[C@H](CC(N)=O)NC(C)=O)C(C)C)C(C)O)C(=O)O (stereo partly shown) [Ref. 24, reference compound] (Ac-N[X1]EQ[ξV]SPL[Thr(3ξ)]LLK(Alloc)-OH) ... 0.55
CCCC[C@H](NC(=O)[C@H](CC/C=C/C(=O)OC)NC(=O)[C@@H]1CC(=O)CN1)C(=O)N[C@H](C(=O)N[C@@H](CC(C)C)C(=O)N1CCC[C@H]1C(=O)N[C@@H](Cc1c[nH]c2ccccc12)C(=O)N1CCC[C@H]1C(=O)O)C(C)CC (stereo partly shown) [Ref. 23, reference compound] (H-[Pro(4-oxo)][X1][Nle][Ile(3ξ)]LPWP-OH) ... 1.82

[P] CCOC(=O)/C=C/CC[C@H](NC(=O)OCc1ccccc1)C(=O)N[C@H](C(=O)N1CCC[C@H]1C(=O)N[C@@H](CC(C)C)C(=O)N[C@H](C(N)=O)C1CCCCC1)C1CCCCC1 [Ref. 12, reference compound] (Cbz-[Nle(5E-ene,6-CO2Et)][Chg]PL[Chg]-NH2)
[Q] CCOC(=O)/C=C/CC[C@H](NC(=O)OCc1ccccc1)C(=O)N[C@H](C(=O)N1CCC[C@H]1C(=O)N[C@@H](CC(C)C)C(=O)N[C@H](C(N)=O)C1CCCCC1)C(C)C [Ref. 08, reference compound] (Cbz-[Nle(5E-ene,6-CO2Et)]VPL[Chg]-NH2)
In the pair P and Q , the larger recorded Selectivity belongs to which? Write down the label attached to your selection. P
